Where these numbers come from: PubChem BioAssay

# assay protocol: E. coli acrAB mutant growth effects, primary screen, E. coli filamentation inducers, strain DRC39, OD650, 48 h (AID 1179);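 further: screen aims at cell division blockers that make cells filament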
# study conditions: E. coli DRC39 delta-acrAB growth, higher = more signal, called active from +8 up or from −8 down
measurement kind: z-score
Form rule: numeric answer, no unit written next to it.

{"columns": ["compound", "z-score"],
 "data": [
  ["CN1C=C(C(=O)OCCS(C)(=O)=O)C(C(=O)OCCS(C)(=O)=O)=CC(c2ccc(CO)cc2)=CC1C1CC1 (centres undefined)", 0.63]
]}

Quick check: z-score of COc1ccc(CCNC(=O)[C@@H]2c3ccccc3C(=O)N(Cc3ccccc3Cl)[C@H]2c2ccc(CO)cc2)cc1 ?
-0.457

Quick check: z-score of C=CCOC(=O)[C@@H]1[C@H]2C(=O)O[C@H](c3ccccc3)[C@H](c3ccccc3)N2[C@H](c2ccc(OCCOC(=O)[C@H]3C[C@H]4C(=O)N5CCC[C@H]5C(=O)N4[C@H]3c3ccc(O)cc3)cc2)[C@@]12C(=O)Nc1ccc(I)cc12 ?
-0.743

Quick check: z-score of CCOC(=O)C[C@H]1[C@H](OC(=O)c2ccc(C(=O)c3ccccc3)cc2)[C@@H](NC(=O)CC(C)C)c2cc(OCCCO)ccc2N1C(=O)c1ccc2ccccc2n1 ?
0.648
